# Tested on: NRF2
# protocol-summary: qPCR analysis of NRF2-regulated genes
# Assay type: cell-based, human
# recorded-conditions: Homo sapiens, 24 h; Assay 12(o); at 10 uM, qPCR; read-out: Induction of NRF2-regulated genes: GSTM1 normalized fold-change
Hi, to clarify the labels: 1 covers fold induction at 10 µM from 1 upward, 0 covers anything below 1.

1) COc1ccc(/C=C2\SC(=N)N(c3nccs3)C2=O)cc1; 1
2) Cc1ccc(NC(=O)c2ccc([N+](=O)[O-])o2)cc1C; 1
3) COc1ccc(C(=O)/C=C/c2ccc(F)cc2)c(OC)c1; 1
4) O=C(Nc1cc(C(F)(F)F)ccc1Cl)c1ccc([N+](=O)[O-])o1; 1

Now consider a different compound.
Inquiry: Confirm if fold induction at 10 µM reported for the compound COc1cccc(/C=C2\CN(C)C/C(=C\c3cccc(OC)c3OC)C2=O)c1OC is 1 or above.
Reply text: 0
